The values you see were collected from PubChem BioAssay (NCI).

# System: SW-620 colon
# method-description: NCI-60 one-dose screen, 48 h (100 = growth as untreated, 0 = no growth, -100 = all killed)
# condition-info: 10 µM unless noted
This is part of a sample that, as a whole, favours compounds with a hit. Of some 83,000 tested, about 20% had one in any assay. Activity calls are given as the source filed them. Rule for the calls: active = growth percent below 10; inactive = the rest.
Collected growth values appear next to each entry.

{"compound": "COc1ccc(C(=O)c2cc3c(N)c(C(=O)Nc4ccc(Cl)cc4)sc3nc2C)cc1", "tested-target": "SW-620 colon", "growth": "64.3% (inactive)"}
{"compound": "COc1ccc2c(c1)OC13Oc4cc(OC)ccc4C=C1CCCC3=C2", "tested-target": "SW-620 colon", "growth": "16.6% (inactive)"}
{"compound": "CC(=O)Nc1ccc(C(=O)Nc2cc(-c3ccccc3)ccc2N)cc1", "tested-target": "SW-620 colon", "growth": "59.3% (inactive)"}
{"compound": "COc1ccc2c(c1)OC1=C(C(=O)OC1)C2c1cc(OC)c(OC)c(OC)c1 (stereo not given)", "tested-target": "SW-620 colon", "growth": "23.2% (inactive)"}
{"compound": "C=C1C(=O)O[C@H]2[C@H]1CC/C(COC(=O)CCCc1c[nH]c3ccccc13)=C\\CC[C@@]1(C)O[C@@H]21", "tested-target": "SW-620 colon", "growth": "24.9% (inactive)"}
